Quick list: apparent KD of MS2 coat protein per entry.
System: MS2 coat protein
EXPERIMENTAL_DETAILS: apparent KD of MS2 coat protein; higher = weaker reporter binding
ASSAY_SETUP: Eterna round: R107; input ligand: tryptophan 2.4 mM
EXPERIMENTAL_ENDPOINT: apparent KD of MS2 coat protein (nM)

AUACAUGAGGAUCACCCAUGUCUUACGGAAGGAGCGAUCAAGAGAUCAGGUAGGUCGCCGUACAUGAGGAUCACCCAUGUAGGCG [EAA NP+V+V2 #9 DOUBLE] ... 31.3
GGGUACAUCGCGGCCGCCACUCGUGUAAAUACAUGAGGAUCACCCAUGUCGAUGGAGACAUCGGCGAGGACCGGGUGAUGUACCG ... 11.5
AUACAUGAGGAUCACCCAUGUAUAGUUGAAGGAGCGACCAGAGGGUCAGGUAGGUCGCAGCGCAUGAGGUAAGCCCAUGUAUGCU [#1 Exclusion - Arginine A Attempt #16 (Inspired by Pi)] ... 17.2
UAUUUGGUGCGCGAGCGCUGGAUAAUUGAUACCAGUGAAGAAGAGCGCCCUUGGCAGCGAAUCCUAACAUGAGGAUCACCCAUGU [5.R] ... 38.7
AUUCUUUACUGAAGGAGCGUCAUUCUUACAUGAGGAUCACCCAUGUUUAUUCUUUAUGAUUGACAGGUAGGUCGCAGAUUUUUUA [#11 Same State - Arginine B] ... 17
AUGGCGUUGGUGUAGCUGUGAAAUGGCGAUACCAGCGUGGAAACACGCCCUUGGCAGCGCCAAAACAUGAGGAUCACCCAUGUUA [Hradec] ... 18.1

The origin of these recorded values is the supplement of paper PMC9170038.
